Each entry below carries its reported pEC50.
Tested on: NQO1 specific enzyme activity in BEAS-2B cells (marker for NRF2 activation)
Test: BEAS-2B NQO1 MTT Assay
Format: cell-based
Settings: NQO1 specific activity induction, 48 hours with compound
From the text: NAD(P)H:quinone oxidoreductase 1 (NQO1), also called DT diaphorase, is a homodimeric FAD-containing enzyme that catalyzes obligatory NAD(P)H-dependent two-electron reductions of quinones and protects cells against the toxic and neoplastic effects of free radicals and reactive oxygen species arising from one-electron reductions. […] On day one, frozen BEAS-2B cells (ATCC) were thawed in a water bath, counted, and re-suspended at a concentration of 250,000 cells/mL. […]
pEC50: −log10 of the molar value.

Compound | pEC50
Cc1ccc(C(OCc2cn(CC(C)C)nn2)C(C)(C)C(=O)O)cc1CN1C[C@@H](C)Oc2ccccc2S1(=O)=O (single isomer, unassigned) [Example 16] | 7.00 to 8.00
Cc1ccc(C(OCc2cn(CC(C)C)nn2)C(C)(C)C(=O)O)cc1CN1C[C@@H](C)Oc2ccccc2S1(=O)=O (single isomer, unassigned) [Example 13] | 8.00 to 9.00
Cc1ccc(C(OCc2cn(C3COC3)nn2)C(C)(C)C(=O)O)cc1CN1C[C@@H](C)Cc2ccncc2S1(=O)=O (single isomer, unassigned) [Example 102] | 7.00 to 8.00
Cc1ccc(C(OCc2cn(C3COC3)nn2)C(C)(C)C(=O)O)cc1CN1C[C@@H](C)Cc2ccncc2S1(=O)=O (single isomer, unassigned) [Example 103] | 8.00 to 9.00
